# Tested on: LNCaP (AR+) prostate cancer cells
# Protocol: ATP-dependent proliferation/viability assay, LNCaP
# Assay type: cell-based
# Condition Info: Homo sapiens, Table IV, read-out: In vitro proliferation IC50 (micro Molar)
Readout Name: pIC50
Keep in mind that pIC50 stands for -log10 of concentration in molar terms.

QUERY: Which pIC50 is reported for this molecule? CCCCC(=O)O[C@]1(C(=O)CO)CC[C@H]2[C@@H]3CCC4=CC(=O)CC[C@]4(C)[C@H]3CC[C@@]21C [CB-03-05, cortexolone 17α-valerate]
RESULT: 4.49

QUERY: Also check CC(=O)O[C@]1(C(C)=O)CC[C@H]2[C@@H]3C=C(Cl)C4=CC(=O)[C@@H]5C[C@@H]5[C@]4(C)[C@H]3CC[C@@]21C [Cyproterone Acetate, Cyproterone acetate, reference compound]
RESULT: 4.66

QUERY: Also check `CCC(=O)O[C@]1(C(=O)CO)CC[C@H]2[C@@H]3CCC4=CC(=O)CC[C@]4(C)[C@H]3CC[C@@]21C`
RESULT: 4.48

This collection of values is drawn from patent US10183030B2.
